- Test system: Wolbachia pipientis
- test_name: Anti-Wolbachia Cell-Based Screen
- Assay type: functional
- Parameters: scale not given: in the data most compounds retested in dose-response had high values
- experimental_conditions: 5 µM
Out of some 48,000 compounds screened, about 13,000 (27%) showed an effect of 50% or more. Some of the results follow.
Examples of compounds with documented Percent Effect follow.
Supply the numeric figure in %, leaving out any unit text.

Solved cases below.
Cc1ccc(N2CCO[C@H]3CN(Cc4ccccn4)C[C@H]32)nn1.O=C(O)C(F)(F)F.O=C(O)C(F)(F)F.O=C(O)C(F)(F)F	-12.44
Cc1cccnc1CCNC(=O)[C@@]12CNC[C@@H]1CN(S(C)(=O)=O)C2	-16.39
CN(Cc1nc(C2CC2)no1)C(=O)CN1CC(c2ccccc2)CC1=O (centres undefined)	-16.31
O=C(CCc1nccs1)N1CCC(C(=O)O)(c2ccccc2)CC1	4.146
O=C(O)C(F)(F)F.c1cnc(N2CCC3(CCN(CC4CCOC4)C3)CC2)nc1 (centres undefined)	-13.35

// lookup Percent Effect for c1cc(COC[C@@]23CCC[C@@H]2CN(C2CCOCC2)C3)ccn1
95.49

Try the compound COc1ccc(CCN)cc1-c1ccc(O)cc1
-1.441

Try the compound O=C1CCCN1CCN1CC=C(c2cnn(C3CCS(=O)(=O)C3)c2)CC1 (centres undefined)
-11.25

Try the compound Cc1ccc(N2C[C@@H]3CN(Cc4ccsc4)CCO[C@@H]3C2)nn1.O=C(O)C(F)(F)F.O=C(O)C(F)(F)F
-3.128

Try the compound O=C(O)C(F)(F)F.O=C(O)C(F)(F)F.c1ccc(CN2C[C@@H]3COC[C@]3(COCC3CCOCC3)C2)nc1
9.184
